# Test system: SF-268 CNS
# METHOD_SUMMARY: NCI tumour cell line growth inhibition, 48 h

- COMPOUND: "C[C@@H](Oc1cc(-c2cnn(C3CCNCC3)c2)cnc1N)c1c(Cl)ccc(F)c1Cl"
  GI50: "3.48 µM"
- COMPOUND: "COc1c(O)cc2oc3cc(O)c(CC=C(C)C)c(O)c3c(=O)c2c1C/C=C(\\C)CCC=C(C)C"
  GI50: "5.56 µM"
- COMPOUND: "COc1ccc(-c2nc3sccn3c2/C=C/C(=O)c2cc(OC)c(OC)c(OC)c2)cc1OC"
  GI50: "2.36 µM"
- COMPOUND: "COC(=O)C1C(O)C(C)C(O)C(C)/C=C\\C=C(C)C(=O)Nc2c(C)c(OC(C)=O)c3c(c2O)C(=O)C(C)=C2OCOC(=C23)C(C)=CC(C)(O)C(O)C(C)C1O (centres undefined)"
  GI50: "39.4 µM"
- COMPOUND: "N.N.NCCCCN.O=C([O-])CC(=O)[O-].O=C([O-])CC(=O)[O-].[Pt+4].[Pt+4]"
  GI50: "> 100 µM"
- COMPOUND: "Cc1ccc(C)c(-n2c(-c3ccc(Br)cc3)csc2=NC(=O)c2ccccc2F)c1"
  GI50: "> 100 µM"
- COMPOUND: "COc1ccc(/C=C/C(=O)/C=C(/C=C/c2ccc(OC)c(OC)c2)OB(F)F)cc1OC"
  GI50: "2.42 µM"
- COMPOUND: "CCN(Cc1ccc(F)cc1F)c1ccc(CO)c(Cl)c1"
  GI50: "22.7 µM"
- COMPOUND: "CCNCCNc1cc(-c2ccc(Cl)cc2)c(C#N)c2nc3ccccc3n12"
  GI50: "1.54 µM"

* * *

# Test system: SK-MEL-5 melanoma
# METHOD_SUMMARY: NCI tumour cell line growth inhibition, 48 h
// reported TGI per item

- MOLECULE: "COc1cccc(-c2nc(-c3ccc(NS(=O)(=O)c4ccccc4)cc3)[nH]c2-c2ccnc(Br)c2)c1"
  TARGET_SYSTEM: "SK-MEL-5 melanoma"
  BOUND_SIGN: "="
  TGI, µM: 3.49
- MOLECULE: "O=C1C(Cl)=C(Oc2ccccc2)C(=O)c2ccccc21"
  TARGET_SYSTEM: "SK-MEL-5 melanoma"
  BOUND_SIGN: "="
  TGI, µM: 17.1
- MOLECULE: "C[C@@H](Oc1cc(-c2cnn(C3CCNCC3)c2)cnc1N)c1c(Cl)ccc(F)c1Cl"
  TARGET_SYSTEM: "SK-MEL-5 melanoma"
  BOUND_SIGN: "="
  TGI, µM: 2.84
- MOLECULE: "OC12c3ccccc3C1CCCCCCCCCC21OCCCO1 (stereo not given)"
  TARGET_SYSTEM: "SK-MEL-5 melanoma"
  BOUND_SIGN: ">"
  TGI, µM: 100
- MOLECULE: "COc1cc(/C=C2\\N=C(c3ccccc3)N(c3ccc(S(=O)(=O)Nc4nccs4)cc3)C2=O)ccc1O"
  TARGET_SYSTEM: "SK-MEL-5 melanoma"
  BOUND_SIGN: ">"
  TGI, µM: 100

* * *

# Tested on: SN12C renal
# METHOD_SUMMARY: NCI tumour cell line growth inhibition, 48 h
ATTRIBUTE_MEASURED: TGI (µM)

- COMPOUND: "COc1ccc(-c2nc3sccn3c2/C=C/C(=O)c2cc(OC)c(OC)c(OC)c2)cc1OC"
  BOUND_SIGN: "="
  REPORTED_MEASUREMENT: 42.8
- COMPOUND: "COC(=O)C1Cc2c(n(C)c3ccccc23)C(c2ccccc2)N1 (stereo not given)"
  BOUND_SIGN: ">"
  REPORTED_MEASUREMENT: 100
- COMPOUND: "Cc1nc(C)c(N2CCN(C(=O)NC(CCC(=O)O)C(=O)O)CC2)c(=O)[nH]1 (stereo not given)"
  BOUND_SIGN: ">"
  REPORTED_MEASUREMENT: 100
- COMPOUND: "COc1ccc(-n2c(-c3ccc(NC(=O)CCCl)cc3)nnc2-c2cc(OC)c(OC)c(OC)c2)cc1"
  BOUND_SIGN: ">"
  REPORTED_MEASUREMENT: 14.3
- COMPOUND: "Nc1c(O)c2c(c(O)c1Cl)C(=O)C=CC2=O"
  BOUND_SIGN: "="
  REPORTED_MEASUREMENT: 13.7

* * *

# Test system: BT-549 breast
# METHOD_SUMMARY: NCI tumour cell line growth inhibition, 48 h; in the data active = GI50 below about 0.43 µM; inactive = the rest
Possible outcomes: True = active, False = inactive

- MOLECULE: "Cc1c(C(=O)N/N=C/c2ccc(O)cc2)nnn1-c1ccnc2c(C(F)(F)F)cccc12"
  GROUP: "False"
- MOLECULE: "COC(=O)c1ccc(-c2nc3cc(F)c(F)cc3nc2C#N)cc1"
  GROUP: "False"
- MOLECULE: "CCOC(=O)c1sc2ncn(Cc3cccc(Cl)c3)c(=O)c2c1C"
  GROUP: "False"
- MOLECULE: "Cc1ccc(C)c(-n2c(-c3ccc(Br)cc3)csc2=NC(=O)c2ccccc2F)c1"
  GROUP: "False"
- MOLECULE: "O=C1C(Cl)=C(Oc2ccccc2)C(=O)c2ccccc21"
  GROUP: "False"
- MOLECULE: "O=C1c2cccnc2-c2nc(-c3ccccn3)cc3c2c1nc1ccccc13"
  GROUP: "True"
- MOLECULE: "CCNCCNc1cc(-c2ccc(Cl)cc2)c(C#N)c2nc3ccccc3n12"
  GROUP: "False"
- MOLECULE: "O=P(Oc1ccccc1)(Oc1ccccc1)C(O)c1ccccc1 (centres undefined)"
  GROUP: "False"
- MOLECULE: "C=C1C(=O)O[C@H]2[C@H]1CC/C(COC(=O)/C=C/c1cccnc1)=C\\CC[C@@]1(C)O[C@@H]21"
  GROUP: "False"
- MOLECULE: "COc1ccc2c(CN3CCC(CO)CC3)cc3cc4c(cc3c2c1)OCO4"
  GROUP: "False"
- MOLECULE: "O=C(Oc1cccc(Nc2ncnc3ccccc23)c1)c1ccccc1Cl"
  GROUP: "False"
- MOLECULE: "COc1ccc(-n2c(-c3ccc(NC(=O)CCCl)cc3)nnc2-c2cc(OC)c(OC)c(OC)c2)cc1"
  GROUP: "False"
- MOLECULE: "Clc1ccc(N2COOC3(OOC2)C2CC4CC(C2)CC3C4)cc1"
  GROUP: "False"
- MOLECULE: "COC(=O)/C=C1\\SC(=Nc2ccc(C(F)(F)F)cc2)N(CCc2c[nH]c3ccccc23)C1=O"
  GROUP: "False"

* * *

Each entry below carries its recorded TGI.
# Test system: HL-60(TB) leukemia
# METHOD_SUMMARY: NCI tumour cell line growth inhibition, 48 h
ATTRIBUTE_MEASURED: TGI (µM)

- COMPOUND: "O=C(Nc1cccc(NS(=O)(=O)c2ccc(F)cc2)c1)c1ccc(-c2ccccc2)cc1"
  BOUND_SIGN: "="
  REPORTED_MEASUREMENT: 12.9
- COMPOUND: "C[C@@H]1C(=O)O[C@@H]2C[C@@]1(C)[C@@H]1C(=O)C3(O)OC14C2(C)OC(=O)[C@@]4(O)CCC1C3C(O)C=C2CC=CC(=O)[C@@]21C (some centres undefined)"
  BOUND_SIGN: "="
  REPORTED_MEASUREMENT: 40.8
- COMPOUND: "COC(=O)C1=C(C(=O)OC)C2(c3ccccc3)c3ccccc3C(=O)C1N2C1CCCCC1 (centres undefined)"
  BOUND_SIGN: ">"
  REPORTED_MEASUREMENT: 100
- COMPOUND: "CC1=C(C(=O)Nc2ccc(F)c(Cl)c2)C(c2cccc(O)c2)NC(=S)N1 (centres undefined)"
  BOUND_SIGN: ">"
  REPORTED_MEASUREMENT: 50
- COMPOUND: "Nc1ccc(CCN2CCN(c3cccc(C(F)(F)F)c3)CC2)cc1"
  BOUND_SIGN: "="
  REPORTED_MEASUREMENT: 41.8
- COMPOUND: "COc1ccc2c(CN3CCC(CO)CC3)cc3cc4c(cc3c2c1)OCO4"
  BOUND_SIGN: "="
  REPORTED_MEASUREMENT: 1.72
- COMPOUND: "CC1=CC(=C(c2ccc(N)c(C)c2)c2ccc(N)c(C)c2)C=CC1=N"
  BOUND_SIGN: "="
  REPORTED_MEASUREMENT: 17.5
- COMPOUND: "O=C(CCl)Nc1ccccc1SCc1cc(Cl)cc2c1OCOC2"
  BOUND_SIGN: "="
  REPORTED_MEASUREMENT: 4.31
- COMPOUND: "CCOC(=O)c1nc2cc(F)c(F)cc2nc1NCc1cc(OC)c(OC)c(OC)c1"
  BOUND_SIGN: ">"
  REPORTED_MEASUREMENT: 100
- COMPOUND: "N/C(=N\\Nc1cccc(Cl)c1)c1cccnc1"
  BOUND_SIGN: ">"
  REPORTED_MEASUREMENT: 66.9
- COMPOUND: "Cc1ccc([N+](=O)[O-])cc1S(=O)(=O)Nc1ccc(C2=NOC(c3ccccc3)C2)cc1 (centres undefined)"
  BOUND_SIGN: "="
  REPORTED_MEASUREMENT: 25.2
- COMPOUND: "COc1cccc2c1C(=O)c1c(O)c3c(c(O)c1C2=O)CC(O)(C(C)=O)CC3OC1CC([N+](C)(C)C)C(O)C(C)O1 (centres undefined)"
  BOUND_SIGN: ">"
  REPORTED_MEASUREMENT: 100
- COMPOUND: "COc1ccccc1/[N+]([O-])=C/c1ccccc1OC(=S)S"
  BOUND_SIGN: "="
  REPORTED_MEASUREMENT: 74.5
- COMPOUND: "COc1ccc(OC)c2sc(N3C(=O)/C(=C/c4ccc(N(C)C)cc4)N=C3c3ccccc3)nc12"
  BOUND_SIGN: "="
  REPORTED_MEASUREMENT: 64.3
- COMPOUND: "c1ccc(Oc2c3ccccc3nc3ccccc23)cc1"
  BOUND_SIGN: "="
  REPORTED_MEASUREMENT: 5.79
- COMPOUND: "COC1/C=C/C(C)C(C(C)C(OC)C(C)CCC(=O)C(C)C(CC(=O)O)OC)OC(=O)/C=C/C=C(\\C)CC(OC)C(OC)C2=CC(=O)O[C@@H](C(C)C(OC)CC(OC)/C=C/C(C)C(O)C1)[C@H]2O (some centres undefined)"
  BOUND_SIGN: "="
  REPORTED_MEASUREMENT: 0.074
- COMPOUND: "N#Cc1c(-c2cccc(Br)c2)cc(-c2ccc(Cl)cc2)nc1N"
  BOUND_SIGN: "="
  REPORTED_MEASUREMENT: 69
- COMPOUND: "CN(C)CCN1N=Nc2cccc3cccc1c23"
  BOUND_SIGN: ">"
  REPORTED_MEASUREMENT: 70.8
- COMPOUND: "Nc1c(O)c2c(c(O)c1Cl)C(=O)C=CC2=O"
  BOUND_SIGN: "="
  REPORTED_MEASUREMENT: 6.13
